system: CDKL5; settings: concentration: 1 μM, replicates: in singlicate; n = 1
Reported Property: %Inh
Enter the number, and then the unit.

                                   compound  reported_property  result
0  Cc1nnc(-c2ccc3ncn(-c4ccc(S(C)=O)cc4)c3c2)o1 (stereo not drawn)               %Inh      0%

Prompt: Request - read-out %Inh | tested on CDKL5 | compound COC(=O)c1c(-c2ccccc2)c2cc(C)ccc2c(=O)n1Cc1ccccc1
Response: 0%

Prompt: Request - read-out %Inh | tested on CDKL5 | compound CCc1ccc(-c2ccc3c(c2)-c2nn(C)cc2S(=O)(=O)N3C)cc1
Response: 0%

Prompt: Request - read-out %Inh | tested on CDKL5 | compound COC(=O)c1c(-c2ccccc2)c2cc(Br)ccc2c(=O)n1Cc1ccc(S(C)(=O)=O)cc1
Response: 26%

Prompt: Request - read-out %Inh | tested on CDKL5 | compound CCn1c(-c2nonc2N)nc2ccccc21 [SB-693162/GW549034];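 also: KINOMEscan kinase panel screen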
Response: 25%
